# TARGET OF ASSAY: Amyloid-beta precursor protein (Homo sapiens)
# PROCEDURE TEXT: Inhibition of Amyloid beta (1 to 42 ) (unknown origin) disaggregation assessed as reduction in mature fibril at 50 uM preincubated with amyloid beta followed by compound addition and measured after 3 days by Thioflavin T based fluorescence assay
# SETTINGS: time 3.0 day
Consider the following compounds; for each one, report its inhibition.
Give just the number in %; leave the unit off.

get_value(item= `Cc1cccn2c1cc1c3ccccc3nc(-c3cc4ccccc4[nH]3)c12` , readout=inhibition) returns 40

get_value(item= `COc1ccc(-c2nc3ccccc3c3cc4c(C)cccn4c23)cc1OC` , readout=inhibition) returns 40

get_value(item= `COc1ccc(-c2nc3ccccc3c3cc4ccc(Br)cn4c23)cc1OC` , readout=inhibition) returns 40
